# Lookup of reported INHIBITION keyed by entry
# System: Plasmodium berghei
# Assay: Screen against P. berghei liver stage (PbLuc), transformed with Luciferase, at 10uM
# Assay type: functional, HepG2
# Condition parameters: tested at 10 uM
Hit rate of the full screen: of about 69,000 compounds, about 8,600 (12%) showed an effect of 50% or more. The sample as a whole holds a higher share of strong results than the screen did.
API: value field is a number in %; no unit string.

INSERT INTO results (compound, u, readout_value) VALUES
  ('CN(Cc1ccccc1-n1cccn1)c1nc(N)nc2c1CCNCC2', '%', -18),
  ('CCc1noc(C2CCCCN2C(=O)c2ccoc2C)n1 (stereo not drawn)', '%', 22.1),
  ('CC(C)N1CCCC(CNC(=O)c2ccnc(-n3ccnc3)c2)C1 (stereo not drawn)', '%', -33),
  ('O=C(CCc1ccsc1)Nc1cnccc1O', '%', -3.43),
  ('CCc1ncc(CN2CCOC(Cc3cccc(F)c3)C2)cn1 (stereo not drawn)', '%', 56.1),
  ('COc1c(C)cnc(CSc2nnc(N)s2)c1C', '%', 28.6);

# evaluate next
INHIBITION measured on `CN(C)C(=O)[C@H]1CCS(=O)(=O)[C@@H]2CN(c3ncccn3)C[C@H]12` = 61.1

###

# Tested on: Plasmodium berghei
# Assay: Screen against P. berghei liver stage (PbLuc), transformed with Luciferase, at 10uM
# Assay type: functional, HepG2
# Condition parameters: tested at 10 uM
The whole screen tested about 69,000 compounds, of which about 8,600 (12%) showed an effect of 50% or more. The sample as a whole holds a higher share of strong results than the screen did.
hey, just use true (1) if measured INHIBITION is less than 20%, otherwise false (0)

Examples with answers:
INSERT INTO measurements (compound, label) VALUES
  ('CC(=O)N1CCN(C(=O)CN2CCCC2Cn2nc(C)cc2C)CC1 (centres undefined)', 'true (1)'),
  ('c1ccc(NCc2cn3c(n2)CN(Cc2cccnc2)CC3)nc1', 'false (0)'),
  ('CCOC(=O)N1CCN(C(=O)c2snnc2-c2ccccc2)CC1', 'true (1)'),
  ('O=C(c1cscn1)N1CCC2(CN(Cc3ccncc3)C2)C1', 'false (0)'),
  ('O=C(O)CN1CCCC2(CCN2Cc2cccc(F)c2)C1 (centres undefined)', 'false (0)');

Query: Would you kindly verify if INHIBITION of O=C(NCC1(O)CCc2ccccc2C1)c1cccs1 (centres undefined) is strictly less than 20%?
Reply: false (0)

Query: Consider the compound Cc1cnn(CC2CCCN2c2ccc(C#N)cn2)c1 (centres undefined) . Is its INHIBITION strictly less than 20%?
Reply: true (1)

Query: Criterion: INHIBITION strictly below 20%. Is it met by Cc1noc(C)c1C(=O)NCC(c1cccc(F)c1)N(C)C (centres undefined) ?
Reply: true (1)

Query: In plain terms, does `O=C(NCc1cccs1)c1[nH]nc2c1CS(=O)(=O)CC2` come in under 20% for INHIBITION?
Reply: true (1)

Query: Does `OCCn1nccc1C1CCN(CCOc2ccc(Cl)cc2)CC1` have INHIBITION strictly under 20%?
Reply: false (0)

Query: I wonder whether Cn1cnnc1C1CCCN(C(=O)c2cc(Cl)c(Cl)n2C)C1 (centres undefined) has INHIBITION below 20%. Can you tell?
Reply: true (1)

Query: Confirm or reject: INHIBITION of Cc1nn(C)c(C)c1C1CCCN1c1ncnc2sccc12 (centres undefined) lies strictly below 20%
Reply: false (0)

###

# Test system: Plasmodium berghei
# Assay: Screen against P. berghei liver stage (PbLuc), transformed with Luciferase, at 10uM
# Format: functional, HepG2
# Condition parameters: tested at 10 uM
The campaign covered roughly 69,000 compounds. About 8,600 (12%) showed an effect of 50% or more. The list comes from a sample in which strong results are over-represented; it also holds close analogues and randomly drawn compounds.
Property name: INHIBITION
Please answer in the form of a number followed by its unit of measurement.

INSERT INTO assay_data (compound_structure_string, readout_value) VALUES
  ('Cc1cnn(CC(=O)N2CCCN(Cc3cnn(C(C)C)c3)CC2)c1', '33.7%');

Record `CC(C)NC(=O)NCc1cc(-c2cccc(Cl)c2)nn1C` , field INHIBITION: 13%

// recorded INHIBITION for `Cn1ccnc1C1(O)CCN(C(=O)CCc2ccccc2)CC1` : 27.465%

Recorded INHIBITION (molecule `CS(=O)(=O)NCc1cncc2c1CCN(C(=O)N1CCCC1)C2` ): 37.2%

###

# Test system: Plasmodium berghei
# Assay: Screen against P. berghei liver stage (PbLuc), transformed with Luciferase, at 10uM
# Format: functional, HepG2
# Condition parameters: tested at 10 uM
The whole screen tested about 69,000 compounds, of which about 8,600 (12%) showed an effect of 50% or more. The list comes from a sample in which strong results are over-represented; it also holds close analogues and randomly drawn compounds.
Reported values of INHIBITION for individual entries
The response must be a number in % with no trailing unit.

As a guide, the following entries are already answered.
INSERT INTO assay_data (compound, readout_value) VALUES
  ('CCC[C@@H]1CN(Cc2ccccc2C#N)C[C@H]1NC(C)=O', 17.5),
  ('CCC[C@@H]1CN(Cc2ccc(N(C)C)nc2)C[C@H]1N(C)C', 36.5),
  ('COc1ccc(CCN2CC(n3nc(C)cc3C)C2)cc1', -6.61),
  ('CCNc1ccnc(N2Cc3cnn(Cc4ccc(F)cc4)c3C2)n1', 78.4),
  ('O=C(c1ccc(-n2cnnn2)cc1)N1CCCC(n2ccnc2)C1 (stereo unspecified)', 26.4),
  ('O=C(c1cc(F)ccc1F)C1CCN(C(=O)c2cnccn2)CC1', 3.73),
  ('CC(C(=O)NC1CC1)n1nc(-c2cccs2)cc(N)c1=O (stereo unspecified)', 23.9),
  ('N#Cc1cnc(N2Cc3cnn(Cc4ccc(F)cc4)c3C2)nc1N', 61.2);

GET /value?item= COc1cc2c(cc1CN1CCCCC1CN1CCOCC1)CCC2 (stereo unspecified) &field=INHIBITION returns 13.9

According to the records, this compound `Cc1cnc(N2Cc3cnn(Cc4ccc(F)cc4)c3C2)nc1N(C)C` displays INHIBITION of 77.6

Looking up `CCC[C@@H]1CN(Cc2c[nH]nc2-c2ccc(F)cc2)C[C@H]1NS(C)(=O)=O` , I see its INHIBITION listed as 27.4

Recorded result, `Cc1nccnc1N1Cc2cnn(Cc3ccc(F)cc3)c2C1` , INHIBITION: 39.1

The value of INHIBITION measured for the compound `CCC[C@H]1CN(Cc2cc(C#N)n(C)c2C)C[C@@H]1N(C)C` turned out to be 73.6

###

The following molecules are listed with their measured INHIBITION values.
# Test system: Plasmodium berghei
# Assay: Screen against P. berghei liver stage (PbLuc), transformed with Luciferase, at 10uM
# Assay type: functional, HepG2
# Condition parameters: tested at 10 uM
The campaign covered roughly 69,000 compounds. About 8,600 (12%) showed an effect of 50% or more. The sample as a whole holds a higher share of strong results than the screen did.
Supply the numeric figure in %, leaving out any unit text.

INSERT INTO assay_data (molecule, measured_on, property_name, u, readout_value) VALUES
  ('Cn1cnc2cc(CCC(=O)Nc3nc[nH]n3)ccc21', 'Plasmodium berghei', 'INHIBITION', '%', 39.2),
  ('CC(NCc1ccc(OCC(N)=O)cc1)c1ccc(Cl)c(Cl)c1 (stereo not drawn)', 'Plasmodium berghei', 'INHIBITION', '%', -6.91);

INHIBITION reported for this molecule O=C(C1CC1)N1CCC2(COCc3cnc(NCc4ccco4)nc32)C1 (stereo not drawn) : -3.33

The molecule `Cc1cccc(CN2CCc3c(COCC(=O)N(C)C)nn(C)c3C2)n1` showed INHIBITION equal to 76.2

Query O=C(CCN1CCCO1)N1CCCC(CO)(CCCc2ccccc2)C1 (stereo not drawn) yields INHIBITION of -4.56

For record `Cc1cccc(CN2CCc3c(CNC(=O)CC#N)nn(C)c3C2)n1` the listed INHIBITION is 44.2

// sample O=C(NC(CC(F)(F)F)c1ccc(Cl)cc1)c1nc(=O)[nH][nH]1 (stereo not drawn) , its INHIBITION was -7.17

Reported INHIBITION of `O=C1CN(c2ccc(CNc3cncc(-n4cccn4)n3)cc2)CCN1` : 40.5

The recorded INHIBITION for `Cc1cc(NCc2ccc(N3CCNC(=O)C3)cc2)nc(C)n1` is 61.8

Value of INHIBITION reported for the molecule `Cc1nc2c(C#N)cnn2c(C)c1CCC(=O)N(C)C1CC1` is 28.5

Quick note, INHIBITION for COc1ccc(C)cc1NC(=O)C1CSc2ncc(C)c(=O)n2C1 (stereo not drawn) landed at 5.36

For reference, reported INHIBITION for Cc1nc2c(C#N)cnn2c(C)c1CCC(=O)N(C)C(C)C(C)C (stereo not drawn) stands at 62.8

INHIBITION for COC(=O)c1ccc(OC)c(OC23CCCN(CC2)C3)c1 (stereo not drawn) is -9.76

In plain terms, CC1CN(C)c2ccccc2CN1CCn1cncn1 (stereo not drawn) has a documented INHIBITION of 38

Entry CC(C)(C)CC(NC(=O)c1nc(=O)[nH][nH]1)c1ccc(F)cc1 (stereo not drawn) , INHIBITION reported as 22.8

Lookup result for Cc1cnn(CC2CN(Cc3csc(C(C)C)n3)CCO2)c1 (stereo not drawn) ; measured INHIBITION: 9.64

Data point: `Cc1ccccc1C(=O)NCc1ccc(N2CCNC(=O)C2)cc1` ; INHIBITION = 15.1

Looking up CSCc1ccc(N(C)CC2CCCN(C(C)C)C2)nc1 (stereo not drawn) , I see its INHIBITION listed as -43.1
